molecular target: TetR (class B, Tn10) (UniProt P04483); test: TetR repression strength (sort-seq, GFP reporter) (relative to tetO2 = 1); higher = stronger repression; details: E. coli
Sequence (P04483 whole entry): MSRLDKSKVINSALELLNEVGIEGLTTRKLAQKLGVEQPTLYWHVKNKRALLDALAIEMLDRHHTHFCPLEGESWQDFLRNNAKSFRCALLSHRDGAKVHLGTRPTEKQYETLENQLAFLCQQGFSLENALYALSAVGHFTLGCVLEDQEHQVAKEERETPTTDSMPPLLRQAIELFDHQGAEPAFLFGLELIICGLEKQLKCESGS
In all, about 18,000 sequences were measured (“TetR repression strength (sort-seq, GFP reporter)”: median about 0.23, highest 2% from about 0.68 on). The sample as a whole holds a higher share of the highest values than the screen did.
Documented TetR repression strength across a set of sequences
quantity.measured: TetR repression strength

- TCCCGGAAAGTGACCGAGA: 0.203
- TCCCCACGAGTGGATGAGA: 0.382
- TCCCAACAAGTGGATGAGA: 0.243
- TCCCGTCTAGTTGAGGAGA: 0.24
- TCCCGGCAAGTTTTTGAGA: 0.238
- TCCCTTAAAGTGATCGAGA: 0.207
- TCCCGGCTAGTAGCAGAGA: 0.0201
- TCCCGGGCAGTCGTCGAGA: 0.311
- TCCCTAGGAGTTAGGGAGA: 0.979
- TCCCCGAAAGTGGCCGAGA: 0.0544
- TCCCCATAAGTCCTTGAGA: 0.415
- TCCCTGTCAGTGCTCGAGA: 0.534
- TCCCCGATAGTCGACGAGA: 0.0424
- TCCCGTCTAGTTCTAGAGA: 0.36
- TCCCGGGGAGTCCTCGAGA: 0.242
- TCCCCGACAGTGACCGAGA: 1.08
- TCCCTTCTAGTTAAGGAGA: 0.283
- TCCCTATCAGTAATTGAGA: 0.787
- TCCCTGGCAGTTAGGGAGA: 0.365
- TCCCCATTAGTGGAGGAGA: 0.275
- TCCCCACCAGTGGATGAGA: 1.05
- TCCCTATTAGTGCTAGAGA: 0.466
- TCCCTATCAGTGCTAGAGA: 0.841
- TCCCAGGGAGTAAAGGAGA: 0.188
- TCCCCAAGAGTCGACGAGA: 0.264
- TCCCTGTTAGTTTGAGAGA: 0.856
- TCCCGTCGAGTGAAGGAGA: 0.311
- TCCCGTCGAGTCCCGGAGA: 0.402
- TCCCGGGAAGTCCTCGAGA: 0.985
- TCCCGTGGAGTGCACGAGA: 0.315
- TCCCAGCGAGTTAGAGAGA: 0.815
- TCCCTATCAGTTTTCGAGA: 0.523
- TCCCCAGGAGTGATGGAGA: 0.176
- TCCCCCAGAGTCGACGAGA: 0.84
- TCCCTATCAGTGCTCGAGA: 0.993
- TCCCTTCAAGTCATTGAGA: 0.0199
- TCCCTTTAAGTGCGCGAGA: 0.764
- TCCCTTGAAGTCATTGAGA: 1.05
- TCCCTATCAGTGGGTGAGA: 0.554
- TCCCGGCAAGTTAGTGAGA: 0.0764
- TCCCTTAAAGTACTCGAGA: 1.16
- TCCCGCGTAGTGTACGAGA: 0.108
- TCCCTATCAGTGATTGAGA: 0.939
- TCCCAGCGAGTTACAGAGA: 0.238
- TCCCGGGCAGTCCGCGAGA: 0.163
- TCCCGGTTAGTTCGAGAGA: 0.0821
- TCCCTATCAGTGTTCGAGA: 0.777
